B1: PPFIA4 (parent)
chain: YAGNLHESGVHGALLALDENFDHN

Variants of: B1
Experiment: protein stability index of a GFP-peptide fusion (GPS, HEK-293T) (PSI 1-6); higher = more stable;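 note: lentivirally expressed fusions sorted by FACS into six bins by GFP to DsRed ratio, PSI derived from sequencing read proportions per bin multiplied by bin number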
Test settings: c terminus: a fixed tail appended

{"columns": ["Mutations", "protein stability index"],
 "data": [
  ["F21W", 2.69],
  ["N24C", 2.58],
  ["N24H", 1.9],
  ["E19T", 2.68],
  ["L5M", 2.23],
  ["H6I", 2.23],
  ["N24R", 1.9],
  ["Y1A", 4.8],
  ["L15M", 2.93],
  ["S8M", 2.19],
  ["A13W", 3.04],
  ["S8N", 2.33],
  ["H11K", 3.33],
  ["E19P", 1.6],
  ["E19C", 1.33],
  ["L5S", 2.72],
  ["E7V", 1.93],
  ["Y1T", 4.26],
  ["E7P", 1.95],
  ["N20A", 2.68],
  ["L14E", 3.83],
  ["H11G", 3.35],
  ["D22S", 2.02],
  ["V10A", 3.11],
  ["Y1L", 4.49],
  ["E7M", 2.02],
  ["G12F", 2.32],
  ["H23D", 2.58],
  ["A13Y", 3.02],
  ["S8I", 2.21],
  ["A2H", 1.85],
  ["G3Q", 3.12],
  ["N4C", 2.03],
  ["G3R", 2.72],
  ["H6A", 2.78],
  ["D18W", 2],
  ["G9M", 3.23],
  ["D22G", 2.4],
  ["H6V", 2.5],
  ["N20Q", 1.86],
  ["L15F", 2.2]
]}
